system.name: T1, CD27 expressed on the cell surface (HT1080_CD27 cells) (human, UniProt P26842 20-260)
T1 construct: whole, on cells; also called K562_CD27
T1 sequence (looked up): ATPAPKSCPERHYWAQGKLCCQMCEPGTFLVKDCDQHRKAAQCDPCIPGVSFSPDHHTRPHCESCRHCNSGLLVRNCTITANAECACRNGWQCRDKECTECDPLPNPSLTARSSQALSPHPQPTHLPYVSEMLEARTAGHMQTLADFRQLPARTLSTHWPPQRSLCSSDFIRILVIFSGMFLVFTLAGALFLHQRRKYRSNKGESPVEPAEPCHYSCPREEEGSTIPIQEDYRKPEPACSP
assay: cellular binding assay, HT1080_CD27 cells; further: test concentration or dose not given here
The binders listed here are annotated with their Cellular binding assay [RFU].

# binder, Cellular binding assay [RFU], RFU
records = [
    ("P018.S.06.A.A02 (antibody, V domains shown, V regions on human Ig constant parts; also called AB27_95) VH: QEQLVESGGGLVQPEGSLTLTCTSSGFSLNSNYYISWVRQAPGKGLEWIACIDAGSGSTWYASWVKGRFTISKTSSTTVTLQMTSLTAADTATYFCARDDIGTSYEYYFGLWGPGTLVTVSS VL: DVVLTQTPASVSEPVGGTVTIKCQASQTISSYLAWYQQKSGQPPKLLIYSASTLASGVSSRFKGSGSGTEYTLTISDLESADAATYYCQTYYGSDSYVFGGGTEVVVK", 366),
    ("P018.S.04.A.B05 (antibody, V domains shown, V regions on human Ig constant parts; also called AB27_68) VH: QSVEESGGRLVTPGTPLTLTCTASGFTLSSFYMSWVRQAPGKGLEWIGFIHGHGNTYYASWAKGRFTISKTSTTVDLKIASPTTEDTATYFCARGGHPNMDLWGQGTLVTISS VL: DIVMTQTPSSVEAAVGGTVTIKCQASQNINNYLAWYQQKPGQPPKLLIYYASTLASGVSSRFKGSGSGTEFTLTISDLESDDAATYYCQCSYYDASIFGAFGGGTEVVVR", 414),
    ("P018.S.02.A.G01 (antibody, V domains shown, V regions on human Ig constant parts; also called AB27_37) VH: QSLEESGGRLVTPGTPLTLTCTVSGIDLSSNAMNWVRQAPGKGLEWIGIIYTSGSTYYASWVKGRFTISRTSTTVDLEMTSLTTEDTATYFCARGVTIDWFDLWGQGTLVTVSS VL: AAVLTQTPSSVSAAVGGTVTINCQSSPSVYSNYLSWFQQKPGQPPKLLIYGASTLTSGVPSRFKGSGSGTQFTLTINDVQSDDAATYWCLGGYGDINDTTFGGGTEVVVK", 332),
]
